target: HLA-B*0702 (human); assay: competition with 125I-labelled standard peptide for purified HLA, gel filtration
reported metric: binding affinity ratio (IC50 of standard peptide / IC50 of test peptide)
Enter the number alone.

{"columns": ["binder", "data value"],
 "data": [
  ["VPNLQSLTNL (modifications not checked) [HBV POL 398 peptide …]", 0.0008],
  ["WPKFAVPNL (modifications not checked) [HBV POL 393 peptide …]", 0.0054],
  ["LPLDKGIKPYY (modifications not checked) [HBV POL 123 peptide …]", -0.0002],
  ["SPEHCSPHHTA (modifications not checked) [HBV NUC 44 peptide […]]", -0.0002]
]}

Next binder, please.
# input Name the recorded binding affinity ratio (IC50 of standard peptide / IC50 of test peptide) for NPLGFFPDHQL (modifications not checked) [HBV ENV 9 peptide […]] .
# output 0.0012
